protocol.description: Intrinsic clearance in human liver microsomes at 2 uM assessed per mg of protein
Type: ADME, Microsome
condition.notes: read-out: CLH
observable: microsomal CLint at 2 µM (µL/min/mg)

Recorded microsomal CLint at 2 µM, per entry:
{"columns": ["smiles.text", "microsomal CLint at 2 µM / µL/min/mg"],
 "data": [
  ["Cn1ncnc1-c1c2c(=O)n(C)c(=O)n(CC3CC3)c2nn1Cc1ccnc2ccc(Cl)cc12", 32],
  ["Cc1cc(C#N)oc1-c1c2c(=O)n(C)c(=O)n(CC3CC3)c2nn1Cc1ccnc2ccc(Cl)cc12", 59]
]}

1: Cc1sc(N)nc1-c1c2c(=O)n(C)c(=O)n(CC3CC3)c2nn1Cc1ccnc2ccc(Cl)cc12
2: CC(C)n1c(=O)c2c(-c3cncn3C)n(Cc3ccnc4ccc(Cl)cc34)nc2n(CC2CC2)c1=O
**Q:** Returns: the argument ( 1 or 2 ) having the larger microsomal CLint at 2 µM. Could you answer with the label of the item you picked?
**A:** 2

---

protocol.description: Intrinsic clearance in mouse liver microsomes at 2 uM assessed per mg of protein
Format: ADME, Microsome
condition.notes: read-out: CLH
observable: microsomal CLint at 2 µM (µL/min/mg)

Recorded microsomal CLint at 2 µM, per entry:
{"columns": ["compound", "microsomal CLint at 2 µM [µL/min/mg]"],
 "data": [
  ["C#CC(C)n1c(=O)c2c(-c3cncn3C)n(Cc3ccnc4ccc(Cl)cc34)nc2n(CC2CC2)c1=O (centres undefined)", 65],
  ["CCn1c(=O)c2c(-c3cc(C#N)cn3C)n(Cc3ccnc4ccc(Cl)cc34)nc2n(CC2CC2)c1=O", 17],
  ["C=CCn1c(=O)c2c(-c3cc(C#N)cn3C)n(Cc3ccnc4ccc(Cl)cc34)nc2n(CC2CC2)c1=O", 76],
  ["Cn1cc(C#N)cc1-c1c2c(=O)n(C3CC3)c(=O)n(CC3CC3)c2nn1Cc1ccnc2ccc(Cl)cc12", 33]
]}

1: CC#CCn1c(=O)c2c(-c3cncn3C)n(Cc3ccnc4ccc(Cl)cc34)nc2n(CC2CC2)c1=O
2: CCn1c(=O)c2c(-c3cncn3C)n(Cc3ccnc4ccc(Cl)cc34)nc2n(CC2CC2)c1=O
**Q:** Returns: the argument ( 1 or 2 ) having the larger microsomal CLint at 2 µM. Could you answer with the label of the item you picked?
**A:** 1

---

protocol.description: Intrinsic clearance in human liver microsomes at 2 uM assessed per mg of protein
Format: ADME, Microsome
condition.notes: read-out: CLH
observable: microsomal CLint at 2 µM

Recorded microsomal CLint at 2 µM, per entry:
{"columns": ["smiles.text", "observable", "value"],
 "data": [
  ["Cn1cc(C#N)cc1-c1c2c(=O)n(CCO)c(=O)n(CC3CC3)c2nn1Cc1ccnc2ccc(Cl)cc12", "microsomal CLint at 2 µM", "> 100 µL/min/mg"],
  ["Cn1cncc1-c1c2c(=O)n(CC#CCN3CCOCC3)c(=O)n(CC3CC3)c2nn1Cc1ccnc2ccc(Cl)cc12", "microsomal CLint at 2 µM", "> 100 µL/min/mg"],
  ["Cn1cc(C#N)cc1-c1c2c(=O)n(CCn3ccnn3)c(=O)n(CC3CC3)c2nn1Cc1ccnc2ccc(Cl)cc12", "microsomal CLint at 2 µM", "> 100 µL/min/mg"],
  ["Cn1cc(C#N)cc1-c1c2c(=O)n(CC#CCN3CCOCC3)c(=O)n(CC3CC3)c2nn1Cc1ccnc2ccc(Cl)cc12", "microsomal CLint at 2 µM", "> 100 µL/min/mg"],
  ["Cn1cncc1-c1c2c(=O)n(C)c(=O)n(CC3CC3)c2nn1Cc1ccnc2ccc(Cl)cc12", "microsomal CLint at 2 µM", "< 17 µL/min/mg"],
  ["Cn1cncc1-c1c2c(=O)n(CC3CC3)c(=O)n(CC3CC3)c2nn1Cc1ccnc2ccc(Cl)cc12", "microsomal CLint at 2 µM", "< 14 µL/min/mg"],
  ["C=CCn1c(=O)c2c(-c3nc(C#N)cn3C)n(Cc3ccnc4ccc(Cl)cc34)nc2n(CC2CC2)c1=O", "microsomal CLint at 2 µM", "> 100 µL/min/mg"],
  ["Cn1cc(C#N)cc1-c1c2c(=O)n(CC#CCO)c(=O)n(CC3CC3)c2nn1Cc1ccnc2ccc(Cl)cc12", "microsomal CLint at 2 µM", "> 100 µL/min/mg"]
]}

**Q:** Give the value of microsomal CLint at 2 µM reported for the following: CCn1c(=O)c2c(-c3cncn3C)n(Cc3ccnc4ccc(Cl)cc34)nc2n(CC2CC2)c1=O
**A:** < 14 µL/min/mg

**Q:** Give the value of microsomal CLint at 2 µM reported for the following: Cn1cc(C#N)cc1-c1c2c(=O)n(CC#N)c(=O)n(CC3CC3)c2nn1Cc1ccnc2ccc(Cl)cc12
**A:** < 14 µL/min/mg

---

target.entity: Glutamate racemase (Helicobacter pylori J99)
protocol.description: Inhibition of Helicobacter pylori J99 glutamate racemase
pIC50: −log10 of the molar value.
observable: pIC50

{"columns": ["smiles.text", "target.entity", "value"],
 "data": [
  ["Cc1oc(C#N)cc1-c1c2c(=O)n(C)c(=O)n(CC3CC3)c2nn1Cc1ccnc2ccc(Cl)cc12", "Glutamate racemase (Helicobacter pylori J99)", 6.66],
  ["Cn1cc(C#N)nc1-c1c2c(=O)n(C3CC3)c(=O)n(CC3CC3)c2nn1Cc1ccnc2ccc(Cl)cc12", "Glutamate racemase (Helicobacter pylori J99)", 6.60],
  ["Cn1cc(S(C)(=O)=O)cc1-c1c2c(=O)n(C)c(=O)n(CC3CC3)c2nn1Cc1ccnc2ccc(Cl)cc12", "Glutamate racemase (Helicobacter pylori J99)", 7.47],
  ["Cc1cc(C#N)oc1-c1c2c(=O)n(C)c(=O)n(CC3CC3)c2nn1Cc1ccnc2ccc(Cl)cc12", "Glutamate racemase (Helicobacter pylori J99)", 7.22],
  ["Cn1cnnc1-c1c2c(=O)n(C)c(=O)n(CC3CC3)c2nn1Cc1ccnc2ccc(Cl)cc12", "Glutamate racemase (Helicobacter pylori J99)", 6.64]
]}

1: Cn1cc(C#N)cc1-c1c2c(=O)n(CC#CCn3cccn3)c(=O)n(CC3CC3)c2nn1Cc1ccnc2ccc(Cl)cc12
2: C=CCn1c(=O)c2c(-c3cncn3C)n(Cc3ccnc4ccc(Cl)cc34)nc2n(CC2CC2)c1=O
**Q:** Returns: the argument ( 1 or 2 ) having the larger pIC50. Could you answer with the label of the item you picked?
**A:** 2
(2: 7.25, 1: 6.92)

---

protocol.description: Intrinsic clearance in human liver microsomes at 2 uM assessed per mg of protein
Type: ADME, Microsome
condition.notes: read-out: CLH
Reported microsomal CLint at 2 µM values for a set of compounds

**Q:** Give the value of microsomal CLint at 2 µM reported for the following: Cn1cncc1-c1c2c(=O)n(CC#CCO)c(=O)n(CC3CC3)c2nn1Cc1ccnc2ccc(Cl)cc12
**A:** > 100 µL/min/mg

---

protocol.description: Intrinsic clearance in mouse liver microsomes at 2 uM assessed per mg of protein
Format: ADME, Microsome
condition.notes: read-out: CLH
Reported microsomal CLint at 2 µM values for a set of compounds

{"columns": ["compound", "microsomal CLint at 2 µM"],
 "data": [
  ["Cn1ncnc1-c1c2c(=O)n(C)c(=O)n(CC3CC3)c2nn1Cc1ccnc2ccc(Cl)cc12", "< 14 µL/min/mg"],
  ["C#CC(C)n1c(=O)c2c(-c3cc(C#N)cn3C)n(Cc3ccnc4ccc(Cl)cc34)nc2n(CC2CC2)c1=O (stereo not drawn)", "> 100 µL/min/mg"],
  ["CC#CCn1c(=O)c2c(-c3cc(C#N)cn3C)n(Cc3ccnc4ccc(Cl)cc34)nc2n(CC2CC2)c1=O", "> 100 µL/min/mg"],
  ["Cn1cc(C#N)cc1-c1c2c(=O)n(CCn3cccn3)c(=O)n(CC3CC3)c2nn1Cc1ccnc2ccc(Cl)cc12", "> 100 µL/min/mg"],
  ["Cn1cc(C#N)cc1-c1c2c(=O)n(CC#CCn3cncn3)c(=O)n(CC3CC3)c2nn1Cc1ccnc2ccc(Cl)cc12", "> 100 µL/min/mg"],
  ["CC(C)n1c(=O)c2c(-c3cncn3C)n(Cc3ccnc4ccc(Cl)cc34)nc2n(CC2CC2)c1=O", "51 µL/min/mg"],
  ["CC(C)Cn1c(=O)n(C)c(=O)c2c(-c3cncn3C)n(Cc3ccnc4ccc(Cl)cc34)nc21", "> 100 µL/min/mg"]
]}

**Q:** Give the value of microsomal CLint at 2 µM reported for the following: CC(C)Cn1c(=O)n(C)c(=O)c2c(-c3cc(C#N)cn3C)n(Cc3ccnc4ccc(Cl)cc34)nc21
**A:** > 100 µL/min/mg

---

Sequence of the target: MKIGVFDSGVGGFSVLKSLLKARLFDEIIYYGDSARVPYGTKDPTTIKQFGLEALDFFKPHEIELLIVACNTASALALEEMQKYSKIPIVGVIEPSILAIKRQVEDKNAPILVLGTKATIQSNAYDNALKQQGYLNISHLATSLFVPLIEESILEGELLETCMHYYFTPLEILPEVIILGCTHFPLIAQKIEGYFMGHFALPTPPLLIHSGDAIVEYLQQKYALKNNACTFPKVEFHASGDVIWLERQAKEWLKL
pIC50: −log10 of the molar value.
observable: pIC50

a: Cn1cc(C#N)nc1-c1c2c(=O)n(CC3CC3)c(=O)n(CC3CC3)c2nn1Cc1ccnc2ccc(Cl)cc12
b: C#CCn1c(=O)c2c(-c3cncn3C)n(Cc3ccnc4ccc(Cl)cc34)nc2n(CC2CC2)c1=O
c: CCn1c(=O)c2c(-c3cc(C#N)cn3C)n(Cc3ccnc4ccc(Cl)cc34)nc2n(CC2CC2)c1=O
d: CC(=O)c1cc(-c2c3c(=O)n(C)c(=O)n(CC4CC4)c3nn2Cc2ccnc3ccc(Cl)cc23)n(C)c1
**Q:** Which order do the items above take when sorted by pIC50 from high to low? To answer, arrange all of the labels according to the requested order.
**A:** b, d, c, a
(b: 7.62, d: 7.41, c: 7.15, a: 6.82)
